PROCEDURE_SUMMARY: Water solubility at room temperature
Type: physicochemical
RUN_PARAMETERS: aqueous media; even at a pH lower than 5; read-out: solubility in aqueous media
Square brackets hold non-standard residues; d marks the D form. Peptide text beside a SMILES is read from it. * marks the point of attachment. dPhe(4-Cl) = N[C@H](Cc1ccc(Cl)cc1)C(=O)O; Nicotinoyl(6-NH2) = Nc1ccc(C(=O)*)cn1; d1Nal = N[C@H](Cc1cccc2ccccc12)C(=O)O; Lys(iPr) = CC(C)NCCCC[C@H](N)C(=O)O; d3Pal = N[C@H](Cc1cccnc1)C(=O)O; Picolinoyl = O=C(c1ccccn1)*; dOrn = NCCC[C@@H](N)C(=O)O

MOLECULE | solubility
CC(=O)N[C@H](Cc1cccc2ccccc12)C(=O)N[C@H](Cc1ccc(Cl)cc1)C(=O)N[C@H](Cc1cccnc1)C(=O)N[C@@H](CO)C(=O)N[C@@H](CCCCNC(=O)c1ccccn1)C(=O)N[C@H](CCCNC(=O)c1ccc(N)nc1)C(=O)N[C@@H](CC(C)C)C(=O)N[C@@H](CCCCNC(C)C)C(=O)N1CCC[C@H]1C(=O)N[C@H](C)C(N)=O [orntide acetate] (Ac-[d1Nal][dPhe(4-Cl)][d3Pal]SK(Picolinoyl)[dOrn](Nicotinoyl(6-NH2))L[Lys(iPr)]P[dA]-NH2; N-terminus and C-terminus assumed) | < 5000 µg/mL

Cited source: patent US8329863B2
